# Test protocol: NOD1 signaling inhibitors, primary screen, cell-based, luminescence, uHTS (AID 1578);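 note: HEK-293T reporter cells stimulated with the NOD1 agonist gamma-tri-DAP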
# Condition parameters: NOD1-driven NF-kB luciferase reporter cells, at 4 µM, hits give high values
About 3,000 (1%) of roughly 290,000 compounds were called active. For the sample, actives were picked, then their nearest neighbours and some compounds at random.
Assay metric: inhibition (%)
# value in %; strip the unit string

Given `O=C(Cc1ccc(F)cc1)NCCc1cnc[nH]1` , state its recorded inhibition.
-7.3

Given O=C(CC1Sc2ccccc2NC1=O)OC(C(=O)NCCc1ccccc1)c1cccnc1 (centres undefined) , state its recorded inhibition.
3.7

Given CC12C(=O)N(c3ccccn3)C(=O)C1C1C=CC2C1 (centres undefined) , state its recorded inhibition.
15.9

Given `Cn1nccc1C(=O)N1CCN(c2cccc(C(F)(F)F)c2)CC1` , state its recorded inhibition.
-2.5

###

Consider the following compounds; for each one, report its inhibition.
# Test protocol: NOD1 signaling inhibitors, primary screen, cell-based, luminescence, uHTS (AID 1578);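 note: HEK-293T reporter cells stimulated with the NOD1 agonist gamma-tri-DAP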
# Condition parameters: NOD1-driven NF-kB luciferase reporter cells, at 4 µM, hits give high values
Out of some 290,000 compounds screened, about 3,000 (1%) were called active. The sample as a whole holds a higher share of actives than the screen did.
# value in %; strip the unit string

Given `COc1ccc2c(c1)C(C)=CC(C)(C)N2S(=O)(=O)c1ccc(NC(C)=O)cc1` , state its recorded inhibition.
31.4

Given `Cc1ccc(C(=O)NS(=O)(=O)c2ccc(C)cc2)cc1` , state its recorded inhibition.
-2.7

Given Cc1csc(CN(C)C(=O)CC2C(=O)NCCN2Cc2ccc(F)cc2Cl)n1 (stereo unspecified) , state its recorded inhibition.
-11.4

Given `COc1ccc(CCNC(=O)CSc2nc3ccccc3o2)cc1` , state its recorded inhibition.
-19.1

Given `C=CCNC(=S)N1CCN(c2ccc([N+](=O)[O-])cc2)CC1` , state its recorded inhibition.
4.7

Given `COc1ccc(C(C)C)cc1S(=O)(=O)N1CCC(C(=O)NCc2cccnc2)CC1` , state its recorded inhibition.
-9.3

Given `CCOc1ccc2c(c1)C(C)=CC(C)(C)N2S(=O)(=O)c1ccc(C)cc1` , state its recorded inhibition.
-31.4

Given `CC(C)[C@H](NC(=O)N1CCn2c1nc1ccccc12)C(=O)N[C@@H](C(=O)O)c1ccccc1` , state its recorded inhibition.
1.1

Given `O=C(O)c1ccc(C=C(c2nc3ccccc3s2)c2nc3ccccc3s2)cc1` , state its recorded inhibition.
63.5

Given `CN(CCOCCOc1ccc(Cl)cc1Br)Cc1ccccc1` , state its recorded inhibition.
-30.1

Given `CC(C)[C@H](NC(=O)N1CCn2c1nc1ccccc12)C(=O)N[C@H](C(=O)O)c1ccccc1` , state its recorded inhibition.
68.4

###

# Test protocol: NOD1 signaling inhibitors, primary screen, cell-based, luminescence, uHTS (AID 1578);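 note: HEK-293T reporter cells stimulated with the NOD1 agonist gamma-tri-DAP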
# Condition parameters: NOD1-driven NF-kB luciferase reporter cells, at 4 µM
Screen size: about 290,000 compounds; about 3,000 (1%) were called active. Cut-off read from the data, not from the text of the source: active = inhibition mostly above about 36% (no sharp cut-off); inactive = mostly below about 34%. The sample holds actives, similar compounds and a random draw of the others, so the mix is not that of the screen.
Your reply should match one of these outcome classes. active, inactive

In this assay, the call recorded for `Cc1c(CCOC(=O)c2cc([N+](=O)[O-])cc([N+](=O)[O-])c2)sc[n+]1CC(=O)c1ccc(Br)cc1` was what?
active

In this assay, the call recorded for `O=C(NNC1=C(C(=O)C(F)(F)F)CCC1)c1ccc(Cl)cc1` was what?
inactive

In this assay, the call recorded for `Cc1c(CCOC(=O)c2cccc([N+](=O)[O-])c2)sc[n+]1CC(=O)c1ccccc1` was what?
inactive

In this assay, the call recorded for `O=[N+]([O-])c1cc([N+](=O)[O-])c(Oc2c(Cl)cccc2Cl)cc1NN1CCCCC1` was what?
inactive

In this assay, the call recorded for `Cc1nc(N2CCN(c3ccccn3)CC2)c2c(C)c(C(=O)Nc3ccc(F)cc3Cl)sc2n1` was what?
inactive

In this assay, the call recorded for `COc1ccccc1N1CCN(C(=O)c2sc3nc(C)nc(N4CCN(c5ccccn5)CC4)c3c2C)CC1` was what?
inactive
